assay: NCI Yeast Anticancer Drug Screen. Data for the sgs1 mgt1 strain (AID 161);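 note: 0% = growth of cultures given vehicle only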; settings: S. cerevisiae sgs1 mgt1 strain, at 50.0 µM (retest, dose inferred, filed as 5.0), stronger effect = higher value
About 79,000 compounds went through this panel and 15% of them were active in at least one assay; those are over-represented in the sample as a whole.
observable: growth inhibition (%)
Answer in %, number only, no unit symbol.

Worked examples, 3 molecules total:
[
  {
    "molecule": "O=C(Cc1ccccc1)c1ccccc1C(=O)NNc1ccccc1",
    "growth inhibition, %": -2
  },
  {
    "molecule": "Nc1ccccc1Nc1c([N+](=O)[O-])cc(C(F)(F)F)cc1[N+](=O)[O-]",
    "growth inhibition, %": 69
  },
  {
    "molecule": "Cc1c2ccncc2cc2c1sc1ccncc12",
    "growth inhibition, %": 99
  }
]

Turning now to a further record.
Consider the molecule CSc1ccc(/C=C2\CNC/C(=C\c3ccc(SC)cc3)C2=O)cc1 . State its measured growth inhibition.
32
